- TEST DETAILS: qHTS assay for measurement of the activity of small molecule inhibitors on Zika virus induced Caspase-3 activity in human iPSC derived neural progenitor cells (hNPCs) (AID 1224857); note: % of control where 0% means no effect; nearly all actives have a fitted effect of over 65% in size
- EXPERIMENTAL CONTEXT: hNPCs ZIKV-induced caspase-3/7, Caspase-Glo luminescence, 6 h; series mostly up to 45.7 µM
Inconclusive results are not listed. Calls of active or inactive are those of the source. Calls come from the whole dose curve; as a rule, active = well fitted inhibition curve with a large enough effect; inconclusive = small, poorly fitted or top-dose-only effect; inactive = no such curve, though single readings can be large or run the other way.
# valid calls are active, inactive; nothing else

>>> class("Oc1ccc([C@@H]2Oc3ccc(O)cc3[C@@H]3CCC[C@@H]32)cc1")
"inactive"

Record lookup: outcome of this test for `C=CC(=O)N1CCc2ccc(-n3c(=O)ccc4cnc5ccc(-c6cnn(C)c6)cc5c43)cc21` ?
inactive

Record lookup: outcome of this test for `Cc1nc(NC(=O)N2CCC[C@@H]2C(N)=O)sc1-c1ccnc(C(C)(C)C(F)(F)F)c1` ?
inactive

###

- TEST DETAILS: Quantitative High-Throughput drug screen in 47 multiple myeloma cell lines against the NCATS MIPE library collection: RPMI8226_ATCC cell viability assay (AID 1919871); note: nearly all actives have a fitted effect of over 30% in size
- EXPERIMENTAL CONTEXT: RPMI8226 myeloma viability, CellTiter-Glo ATP luminescence, 48 h; series mostly up to 45.8 µM
Inconclusive results are not listed. Active and inactive are the calls of the source. Calls come from the whole dose curve; as a rule, active = well fitted cell-killing curve with a large enough effect; inconclusive = small, poorly fitted or top-dose-only effect, or effect the other way; inactive = no such curve, though single readings can be large or run the other way.
# valid calls are active, inactive; nothing else

Example results:
>>> class("CC[C@H](CC[C@@H](C)[C@H]1CC[C@H]2[C@@H]3CC=C4C[C@@H](O)CC[C@]4(C)[C@@H]3CC[C@]12C)C(C)C")
"inactive"
>>> class("CCOC(=O)[C@H](CCc1ccccc1)N[C@@H](C)C(=O)N1[C@@H](C(=O)O)C[C@H]2CCC[C@@H]21")
"active"
>>> class("OCCNC1CCCc2c1[nH]c1ccc(-c3ccccc3)cc21 (stereo not drawn)")
"active"
>>> class("CCc1cnn2c(NCc3ccc[n+]([O-])c3)cc(N3CCCC[C@@H]3CCO)nc12")
"active"
>>> class("C=CC(=O)Nc1ccc2ncnc(Nc3ccc(OCc4cccc(F)c4)c(Cl)c3)c2c1")
"active"
>>> class("N#Cc1c(C2CCNCC2)cc(-c2c(O)cccc2OCC2CC2)nc1N")
"active"
>>> class("OC[C@H]1OC(O)C[C@@H](O)[C@H]1O (stereo partly drawn)")
"inactive"
>>> class("CN(C)CC(=O)N1CCC(c2ccc(NC(=O)c3ncc(C#N)[nH]3)c(C3=CCCCC3)c2)CC1")
"inactive"
>>> class("CN(N=O)C(=O)N[C@H]1C(O)OC(CO)[C@@H](O)[C@H]1O (stereo partly drawn)")
"inactive"
>>> class("CC(=O)NC(CS)C(=O)O (stereo not drawn)")
"inactive"

Record lookup: outcome of this test for `N#Cc1cc(NC(=O)Nc2nnc(-c3ccncc3)s2)ccc1-c1cn[nH]c1` ?
inactive

Record lookup: outcome of this test for CC(C(C)N1CC(=O)NC(=O)C1)N1CC(=O)NC(=O)C1 (stereo not drawn) ?
inactive

Record lookup: outcome of this test for `CC[C@H]1OC(=O)[C@H](C)[C@@H](O[C@H]2C[C@@](C)(OC)[C@@H](O)[C@H](C)O2)[C@H](C)[C@@H](O[C@@H]2O[C@H](C)C[C@H](N(C)C)[C@@H]2O)[C@](C)(OC)C[C@@H](C)C(=O)[C@H](C)[C@@H](O)[C@]1(C)O` ?
inactive

Record lookup: outcome of this test for CCCCCCCCCCCC(CC1OC(=O)C1CCCCCC)OC(=O)C(CC(C)C)NC=O (stereo not drawn) ?
active

Record lookup: outcome of this test for `C[C@@H](NCc1cc2ccccc2[nH]1)c1cccc2ccccc12` ?
inactive

###

- TEST DETAILS: qHTS of pediatric cancer cell lines to identify multiple opportunities for drug repurposing: Primary screen for DAOY cells (AID 1347090); note: nearly all actives have a fitted effect of over 55% in size
- EXPERIMENTAL CONTEXT: DAOY medulloblastoma viability, CellTiter-Glo luminescence, 48 h; series mostly up to 46 µM
Records with an inconclusive call do not appear. Calls of active or inactive are those of the source. Calls come from the whole dose curve; as a rule, active = well fitted cell-killing curve with a large enough effect; inconclusive = small, poorly fitted or top-dose-only effect; inactive = flat fitted curve, though single readings scatter.
# valid calls are active, inactive; nothing else

Record lookup: outcome of this test for CC1=C(C(=O)Nc2cc3cn[nH]c3cc2F)C(c2ccc(Cl)cc2F)N=C(c2ccnc(Cl)c2)N1 (centres undefined) ?
inactive

Record lookup: outcome of this test for `CON=C(C(=O)N[C@@H]1C(=O)N2C(C(=O)O)=C(CSC(=O)c3ccco3)CS[C@H]12)c1csc(N)n1` ?
inactive

Record lookup: outcome of this test for `COc1ccc([C@@H]2CNC(=O)C2)cc1OC1CCCC1` ?
active

Record lookup: outcome of this test for COc1cc(C)c(Sc2cnc(NC(=O)c3ccc(CNC(C)C(C)(C)C)cc3)s2)cc1C(=O)N1CCN(C(C)=O)CC1 (centres undefined) ?
active

###

- TEST DETAILS: Quantitative High-Throughput drug screen in 47 multiple myeloma cell lines against the NCATS MIPE library collection: PCM6_Riken cell viability assay (AID 1919870); note: nearly all actives have a fitted effect of over 30% in size
- EXPERIMENTAL CONTEXT: CellTiter-Glo ATP, 48 h; series mostly up to 45.8 µM
Records with an inconclusive call do not appear. Activity calls are given as the source filed them. The call rests on the fitted dose curve; in most records, active means well fitted cell-killing curve with a large enough effect; inconclusive means small, poorly fitted or top-dose-only effect, or effect the other way; inactive means no such curve, though single readings can be large or run the other way.
# valid calls are active, inactive; nothing else

>>> class("CC(=O)SCC(Cc1ccccc1)C(=O)NCC(=O)OCc1ccccc1 (centres undefined)")
"active"
>>> class("COc1ccc2cc([S+]([O-])Cc3ncc(C)c(OC)c3C)nc2c1")
"inactive"
>>> class("CC(=O)N1CCN(c2ccc(OCc3nn(C)c(C)c3-c3cccc4c(CCCOc5cccc6ccccc56)c(C(=O)O)n(Cc5cccnc5)c34)cc2)CC1")
"active"

Next up:
Record lookup: outcome of this test for `NC(=O)Nc1sc(-c2ccc(F)cc2)cc1C(N)=O` ?
active

###

- Test system: CP256
- TEST DETAILS: qHTS profiling for inhibitors of Plasmodium falciparum proliferation (AID 504749); note: nearly all actives have a fitted effect of over 60% in size; note: potency is the fitted concentration of half-maximal effect
- EXPERIMENTAL CONTEXT: P. falciparum in erythrocytes, SYBR Green DNA, 72 h; series mostly up to 28.7 µM
Records with an inconclusive call do not appear. Active and inactive are the calls of the source. Calls follow the shape of the dose curve; as a rule, active = well fitted inhibition curve with a large enough effect; inconclusive = small, poorly fitted or top-dose-only effect; inactive = flat fitted curve, though single readings scatter.
PARAMETER MEASURED: Potency

>>> reading("OCC(O)C(O)C(O)CO (stereo not given)")
"inactive"
>>> reading("COc1cccc2c1C(=O)c1c(O)c3c(c(O)c1C2=O)C[C@@](O)(C(=O)CO)C[C@@H]3O[C@H]1C[C@H](N)[C@H](OC2CCCCO2)[C@H](C)O1 (stereo not given in full)")
"8.91 µM (active)"
>>> reading("CCC(C(=O)O)C1CCC(C)C(C(C)C(O)C(C)C(=O)C(CC)C2OC3(C=CC(O)[C@@]4(CC[C@](C)(C5CC[C@@](O)(CC)C(C)O5)O4)O3)C(C)CC2C)O1 (stereo not given in full)")
"2 µM (active)"
>>> reading("Nc1nc2c(c(=O)[nH]1)N(C=O)[C@H](CNc1ccc(C(=O)N[C@@H](CCC(=O)O)C(=O)O)cc1)CN2")
"inactive"

Turning now to a further molecule:
Reported Potency ( `COc1ccc([C@@H]2CNC(=O)C2)cc1OC1CCCC1` ) = inactive

###

- TEST DETAILS: Quantitative High-Throughput drug screen in 47 multiple myeloma cell lines against the NCATS MIPE library collection: OCIMY1_PLB cell viability assay (AID 1918979); note: nearly all actives have a fitted effect of over 35% in size;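 for viability: 100% = DMSO-only wells and 0% = cell-free media-only wells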
- EXPERIMENTAL CONTEXT: OCI-MY1 myeloma viability, CellTiter-Glo ATP, 48 h; series mostly up to 45.8 µM
Records with an inconclusive call do not appear. The source made the active and inactive calls. The call rests on the fitted dose curve; in most records, active means well fitted cell-killing curve with a large enough effect; inconclusive means small, poorly fitted or top-dose-only effect, or effect the other way; inactive means no such curve, though single readings can be large or run the other way.
# valid calls are yes (active), no (inactive); nothing else

>>> class("CC(C)NC[C@@H](C(=O)N1CCN(c2ncnc3c2[C@H](C)C[C@H]3O)CC1)c1ccc(Cl)cc1")
"yes"

Record lookup: outcome of this test for `Nc1nc2c(c(=O)[nH]1)N(C=O)[C@H](CNc1ccc(C(=O)N[C@@H](CCC(=O)O)C(=O)O)cc1)CN2` ?
no

Record lookup: outcome of this test for `CCC(C=C[C@@H]1OC(=O)C=C[C@H]1C)=C[C@H](C)CC=CC(C)=C[C@@H](C)C(=O)[C@@H](C)[C@H](O)[C@@H](C)CC(C)=CC(=O)O` ?
yes

Record lookup: outcome of this test for `C[C@H]1[C@@H](OC(=O)CCC(=O)O)O[C@@H]2O[C@@]3(C)CC[C@@H]4[C@H](C)CC[C@@H]1[C@@]24OO3` ?
yes

###

- TEST DETAILS: Quantitative High-Throughput drug screen in 47 multiple myeloma cell lines against the NCATS MIPE library collection: KMS28PE_JCRB cell viability assay (AID 1918983); note: nearly all actives have a fitted effect of over 35% in size
- EXPERIMENTAL CONTEXT: KMS28PE multiple myeloma viability, CellTiter-Glo ATP, 48 h; series mostly up to 45.8 µM
Records with an inconclusive call do not appear. Active and inactive are the calls of the source. Calls follow the shape of the dose curve; as a rule, active = well fitted cell-killing curve with a large enough effect; inconclusive = small, poorly fitted or top-dose-only effect, or effect the other way; inactive = no such curve, though single readings can be large or run the other way.
# valid calls are 1.0 for active, 0.0 for inactive; nothing else

Example results:
>>> class("CC[C@]12C=CCN3CC[C@@]4(c5cc([C@@]6(C(=O)OC)C[C@H]7C[C@@H](C(C)(F)F)CN(Cc8c6[nH]c6ccccc86)C7)c(OC)cc5N(C)[C@H]4[C@@](O)(C(=O)OC)[C@H]1OC(C)=O)[C@@H]32")
1.0
>>> class("CN1CCc2c(c3ccccc3n2Cc2ccc(C(=O)NO)cc2)C1")
1.0
>>> class("CC(N[C@H]1CCCC[C@H]1NC(=O)c1ccc(Cl)cc1)c1cccc2ccccc12 (stereo not given in full)")
0.0

Next up:
Record lookup: outcome of this test for `COc1cccc2c1C(=O)c1c(O)c3c(c(O)c1C2=O)C[C@@](O)(C(=O)CO)C[C@@H]3O[C@H]1C[C@H](N)[C@@H](O)[C@H](C)O1` ?
1.0
